Listing of recorded GI50 by entry.
- System: LXFL 529
- protocol notes: NCI tumour cell line growth inhibition, 48 h
Active and inactive are the calls of the source. Rule as the data show it: active = GI50 up to about 1.1 µM and inactive = higher.

Known results for compounds:
INSERT INTO assay_data (compound, measured_quantity, measurement) VALUES
  ('COc1cc(CNc2ccc(SC)cc2)cc(OC)c1OC', 'GI50', '18.4 µM (inactive)'),
  ('COC(=O)C1CCC2(CC1)NC(=O)NC2=O (stereo unspecified)', 'GI50', '> 100 µM (inactive)'),
  ('N#Cc1ccccc1Sc1ccccc1N', 'GI50', '61.5 µM (inactive)'),
  ('Cc1nnc2n1N=C(c1ccc(-c3ccc([N+](=O)[O-])cc3)o1)CS2', 'GI50', '> 100 µM (inactive)'),
  ('CCN(CC)CCCNC(=O)c1ccccc1Nc1c(Cl)cccc1Cl', 'GI50', '14.6 µM (inactive)'),
  ('Cn1c(N)c(-c2c3ccccc3nc3ccccc23)c(=O)n(C)c1=O', 'GI50', '> 100 µM (inactive)'),
  ('c1ccc2c(c1)cc(C1NCCc3nc[nH]c31)c1ccccc12 (stereo unspecified)', 'GI50', '41.3 µM (inactive)'),
  ('Cc1nc(=O)[nH]c2[nH][nH]c(=O)c12', 'GI50', '> 100 µM (inactive)');

Look at this compound and give its reported GI50. NC(=O)c1cccc(C2OC(COP(=O)(O)O)C(O)C2O)c1 (stereo unspecified)
> 50 µM (inactive)

Look at this compound and give its reported GI50. `CC(C)(C)N/N=C(\Cc1occc(=O)c1O)C(=O)Nc1ccc([N+](=O)[O-])cc1[N+](=O)[O-]`
> 100 µM (inactive)

Look at this compound and give its reported GI50. `COC(=O)/C(=C1\OC(=O)C(c2ccc(Cl)cc2)=C1O)c1ccc(Cl)cc1`
26.6 µM (inactive)

====

- Test system: Malme-3M
- protocol notes: NCI tumour cell line growth inhibition, 48 h
Active and inactive are the calls of the source. No stated cut-off is given here; in the data, active = GI50 up to about 1.1 µM and inactive = higher.
Listing of recorded GI50 by entry.

Known results for compounds:
INSERT INTO measurements (compound, system_name, measurement) VALUES
  ('C1CN2CCNCCN(CCN1)CC2', 'Malme-3M', '> 100 µM (inactive)'),
  ('N#C/C(N)=C(C#N)/N=C/Nc1ccccc1N', 'Malme-3M', '> 100 µM (inactive)'),
  ('COc1cc(/C=N/NC(=O)c2ccc(NC(C)=O)cc2OC)ccc1O', 'Malme-3M', '> 100 µM (inactive)'),
  ('CC(=O)O[C@H]1C(=O)[C@@]2(C)C(C(OC(=O)c3ccccc3)[C@]3(O)C[C@H](OC(=O)C(OC(=O)CCCC(=O)NCCCN(C)C)C(NC(=O)c4ccccc4)c4ccccc4)C(C)=C1C3(C)C)C1(OC(C)=O)COC1C[C@@H]2O (stereo not given in full)', 'Malme-3M', '< 0.01 µM (active)'),
  ('CN1CCc2c(sc3ncn(Nc4ccc(F)cc4)c(=N)c23)C1', 'Malme-3M', '> 100 µM (inactive)');

Next item in the queue.
Look at this compound and give its reported GI50. `COC(=O)CSSCc1ccc([N+](=O)[O-])cc1`
29.6 µM (inactive)

====

- System: MDA-MB-231
- protocol notes: NCI tumour cell line growth inhibition, 48 h
Active and inactive are the calls of the source. No stated cut-off is given here; in the data, active = GI50 up to about 1.1 µM and inactive = higher.
Please state which outcome applies, choosing from y (active), n (inactive)

INSERT INTO assay_data (molecule, discrete_label) VALUES
  ('O=C(CCBr)N1CCN(C(=O)CCBr)CC1', 'n'),
  ('O=C1C(Sc2ccc3ccccc3c2)=C(Sc2ccc3ccccc3c2)C(=O)c2ccccc21', 'n'),
  ('CC1(C)Oc2ccc3c(=O)cc(-c4cccs4)oc3c2C1C(=O)O (stereo not given)', 'n'),
  ('CC(C)NC(NC(C)C)=C(S(=O)(=O)C(F)(F)C(F)(F)C(F)(F)C(F)(F)F)S(=O)(=O)C(F)(F)C(F)(F)C(F)(F)C(F)(F)F', 'n'),
  ('Cc1nc2n(c1/C=C1/C(=O)Nc3ccccc31)CCS2', 'n'),
  ('c1ccc(-c2cccc(-c3ccccn3)n2)nc1', 'y');

Recorded call for `N#C/C(N)=C(C#N)/N=C/Nc1ccccc1N` ?
n

Recorded call for `O=C(C#Cc1ccccc1)N1CCCCC1` ?
n

Recorded call for `CC(C)(C)c1cc(C=C(C#N)C#N)cc(C(C)(C)C)c1O` ?
n

Recorded call for COc1cc(/C=C/C(=O)CC(=O)/C=C/c2ccc(OC(=O)CCCCC3CCSS3)c(OC)c2)ccc1OC(=O)CCCCC1CCSS1 (stereo not given) ?
n

====

- Tested on: MOLT-4
- protocol notes: NCI tumour cell line growth inhibition, 48 h
Activity calls are given as the source filed them. Rule as the data show it: active = GI50 up to about 1.1 µM and inactive = higher.
Listing of recorded GI50 by entry.

Known results for compounds:
INSERT INTO measurements (compound, measurement) VALUES
  ('COc1nc(Cl)nc(N[C@H](C)c2c3ccccc3cc3ccccc23)n1', '14.1 µM (inactive)'),
  ('COC(=O)C1C(OCc2ccccc2)C2CCC1(OC)C=C2C (centres undefined)', '24.9 µM (inactive)'),
  ('COc1ccc(C(=O)O[C@H]2CC[C@@]3(C)[C@@H]4CC[C@H]5[C@]6(O)C[C@H](O)[C@@]7(O)[C@@H](CN8C[C@@H](C)CC[C@H]8[C@@]7(C)O)[C@]6(O)C[C@@]53OC24O)cc1OC', '95.5 µM (inactive)');

Next item in the queue.
Look at this compound and give its reported GI50. `CCOC(=O)C(=O)Nc1nc2c(OCC)cccc2s1`
> 100 µM (inactive)

====

- System: MOLT-4
- protocol notes: NCI tumour cell line growth inhibition, 48 h
Activity calls are given as the source filed them. Cut-off read from the data, not from the text of the source: active = GI50 up to about 1.1 µM and inactive = higher.
Please state which outcome applies, choosing from active, inactive

Answered examples (5):
INSERT INTO results (compound, system_name, discrete_label) VALUES
  ('COc1ccc(C(=O)c2cc(OC)c(OC)c(OC)c2)cc1', 'MOLT-4', 'active'),
  ('CCOC(=O)c1nc2ccc(C(F)(F)F)cc2nc1Oc1cc(OC)c(OC)c(OC)c1', 'MOLT-4', 'inactive'),
  ('Cc1cc(-c2nc3cc(F)ccc3s2)ccc1N', 'MOLT-4', 'inactive'),
  ('Cc1ccc(/N=N/C(=O)NNc2ccc(C)cc2Br)c(Br)c1', 'MOLT-4', 'inactive'),
  ('c1ccc2c(c1)cc(C1NCCc3nc[nH]c31)c1ccccc12 (stereo not given)', 'MOLT-4', 'inactive');

Recorded call for `CNC(=S)/C(C#N)=C(\N)N1CCCC1` ?
inactive

Recorded call for `CN1CCc2c(sc3ncn(Nc4ccc(F)cc4)c(=N)c23)C1` ?
inactive

Recorded call for `COc1c2ccoc2c(S(=O)(=O)Nc2ccc(Cl)cc2)c2oc(C)cc(=O)c12` ?
inactive

Recorded call for COc1cc(/C=C/C(=O)CC(=O)/C=C/c2ccc(OC(=O)CCCCC3CCSS3)c(OC)c2)ccc1OC(=O)CCCCC1CCSS1 (stereo not given) ?
inactive

====

- System: SNB-78
- protocol notes: NCI tumour cell line growth inhibition, 48 h
Active and inactive are the calls of the source. Cut-off read from the data, not from the text of the source: active = GI50 up to about 1.1 µM and inactive = higher.
Please state which outcome applies, choosing from 1 for active, -1 for inactive

INSERT INTO assay_data (compound, system_name, discrete_label) VALUES
  ('CCC1=C(CC2NCCc3ccccc32)CC2c3cc(OC)c(OC)cc3CCN2C1 (configuration not stated)', 'SNB-78', -1),
  ('CC12CC[C@@H](C(C)(C)O)C1[C@@H](O)CC1(C)C2CCC2[C@@]3(C)CC[C@H](O)C(C)(C)C3C(O)C[C@]21C (some centres not stated)', 'SNB-78', -1);

Recorded call for O=C(c1ccccc1)C(c1ccccc1)C1(O)C(=O)Nc2ccccc21 (configuration not stated) ?
-1

Recorded call for c1ccc2c(c1)cc(C1NCCc3nc[nH]c31)c1ccccc12 (configuration not stated) ?
-1

Recorded call for `COc1cc2c(c(OC)c1OC)-c1ccc(SC)c(=O)cc1[C@@H](NC(=O)c1ccc(OC(C)=O)cc1)CC2` ?
1

====

Listing of recorded GI50 by entry.
- System: SK-OV-3
- protocol notes: NCI tumour cell line growth inhibition, 48 h
Calls of active or inactive are those of the source. Rule as the data show it: active = GI50 up to about 1.1 µM and inactive = higher.

Known results for compounds:
INSERT INTO results (compound, system_name, measurement) VALUES
  ('O=c1cc(-c2ccccc2)oc2ccc(-c3ccc4oc(-c5ccccc5)cc(=O)c4c3)cc12', 'SK-OV-3', '44.8 µM (inactive)'),
  ('CC(=O)Nc1ccccc1[S+]([O-])c1ccccc1 (stereo unspecified)', 'SK-OV-3', '84.5 µM (inactive)'),
  ('CC(C)(C)OC(=O)N1N=NC2C1C1CC(OCc3ccccc3)(OCc3ccccc3)C2O1 (stereo unspecified)', 'SK-OV-3', '> 100 µM (inactive)'),
  ('CO[C@](C(=O)OC[C@H]1[C@@H](COC(C)=O)[C@@H]2O[C@H]1c1cc3c(cc12)OCO3)(c1ccccc1)C(F)(F)F', 'SK-OV-3', '89.7 µM (inactive)'),
  ('Cc1ccc(S(=O)(=O)n2cc(/C=C/C#N)c(/C=C/C#N)c2)cc1', 'SK-OV-3', '> 100 µM (inactive)'),
  ('COC(=O)/C=C1/OC(c2ccc(OC)cc2)=C(Cl)C1=O', 'SK-OV-3', '16.7 µM (inactive)');

Can you look up GI50 on SK-OV-3 for `CNC(=S)/C(C#N)=C(\N)N1CCCC1` ?
> 100 µM (inactive)

Can you look up GI50 on SK-OV-3 for `CC(C)=CC[C@]12CCN(C)[C@H]1N(S(=O)(=O)c1ccccc1)c1ccccc12` ?
6.25 µM (inactive)
